# TARGET SYSTEM: T1, GFP-9S library array, motif 4 ND N98G;D124N (synthetic construct, N98G;D124N)
# T1 chain: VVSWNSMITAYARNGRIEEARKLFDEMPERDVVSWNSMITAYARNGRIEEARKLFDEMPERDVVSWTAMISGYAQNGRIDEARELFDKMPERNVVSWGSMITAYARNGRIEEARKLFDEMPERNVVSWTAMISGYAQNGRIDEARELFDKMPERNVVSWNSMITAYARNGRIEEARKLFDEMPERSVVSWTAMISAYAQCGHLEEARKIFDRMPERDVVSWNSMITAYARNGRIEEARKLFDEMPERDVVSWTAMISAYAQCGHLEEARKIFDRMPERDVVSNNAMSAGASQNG
# ASSAY NAME: high-throughput RNA pulldown from lysate on Ni-NTA beads; HRP: 50 mM Tris pH 8, 150 mM NaCl, 1 mM beta-mercaptoethanol, 50 ug/ml BSA, 3 ug/ml yeast RNA, 0.5% heparin; ITC and FP: Tris pH 8, 200 mM KCl, 5% glycerol; MST: 50 mM Tris pH 8, 200 mM NaCl, 1 mM DTT, BSA, heparin, 0.05% Tween 20
# TEST CONDITIONS: tags: N-terminal His-eGFP; label: 5' Cy5
pKd: −log10 of the molar value.

>  <BINDER>
AUUACACGUGA (ssRNA) [Cy5-rpoA]

>  <pKd>
6.81

$$$$
>  <BINDER>
AUUAGACGUGA (ssRNA) [Cy5-rpoA-G]

>  <pKd>
6.56

$$$$
